- Tested on: acetic acid-induced abdominal writhing
- PROCEDURE_DETAILS: acetic acid-induced abdominal writhing assay (peripheral analgesic)
- Assay type: in vivo, mice
- TEST_CONTEXT: 10 mg/kg indomethacin mol equivalent i.p.
The label is satisfied for % Inhibition/Protection below 70% and not satisfied for % Inhibition/Protection equal to or exceeding 70%.

Below are worked cases with known answers.
COc1ccc(-n2cc(COC(=O)Cc3c(C)n(C(=O)c4ccc(Cl)cc4)c4ccc(OC)cc34)nn2)cc1	satisfied
COc1ccc2c(c1)c(CC(=O)OCc1cn(-c3ccc([N+](=O)[O-])cc3)nn1)c(C)n2C(=O)c1ccc(Cl)cc1	not satisfied
COc1ccc2c(c1)c(CC(=O)OCc1cn(-c3ccccc3Cl)nn1)c(C)n2C(=O)c1ccc(Cl)cc1	satisfied
COc1ccc(-n2cc(COC(=O)C(C)c3ccc(CC(C)C)cc3)nn2)cc1 (stereo not drawn)	not satisfied
COc1ccc2c(c1)c(CC(=O)OCc1cn(-c3ccccc3OC)nn1)c(C)n2C(=O)c1ccc(Cl)cc1	not satisfied

hey, is % Inhibition/Protection for COc1ccc2c(c1)c(CC(=O)OCc1cn(-c3ccc(C)cc3)nn1)c(C)n2C(=O)c1ccc(Cl)cc1 lower than 70% or not? satisfied

hey, is % Inhibition/Protection for COc1ccccc1-n1cc(COC(=O)C(C)c2ccc(CC(C)C)cc2)nn1 (stereo not drawn) lower than 70% or not? satisfied

hey, is % Inhibition/Protection for Cc1ccc(-n2cc(COC(=O)C(C)c3ccc(CC(C)C)cc3)nn2)cc1 (stereo not drawn) lower than 70% or not? not satisfied

---

- Tested on: acetic acid-induced abdominal writhing
- PROCEDURE_DETAILS: acetic acid-induced abdominal writhing assay (peripheral analgesic)
- Type: in vivo, mice
- TEST_CONTEXT: % inhibition/protection compared to indomethacin
Potency values for the compounds below.
Remember to follow the number with its unit.

Potency value, target or system acetic acid-induced abdominal writhing, for COc1ccc2c(c1)c(CC(=O)OCc1cn(-c3ccc(C)cc3)nn1)c(C)n2C(=O)c1ccc(Cl)cc1 : 87.0%

Potency value, target or system acetic acid-induced abdominal writhing, for COc1ccc2c(c1)c(CC(=O)OCc1cn(-c3ccccc3Cl)nn1)c(C)n2C(=O)c1ccc(Cl)cc1 : 68.7%

Potency value, target or system acetic acid-induced abdominal writhing, for COc1ccc(-n2cc(COC(=O)Cc3c(C)n(C(=O)c4ccc(Cl)cc4)c4ccc(OC)cc34)nn2)cc1 : 93.0%

Potency value, target or system acetic acid-induced abdominal writhing, for COc1ccc2c(c1)c(CC(=O)OCc1cn(-c3ccc(F)cc3)nn1)c(C)n2C(=O)c1ccc(Cl)cc1 : 57.5%

---

- System: gastric mucosa
- TEST_CONTEXT: both, albino, mouse, in vivo, po, 10 mg/kg, 3 days
% Incidence of Ulcer Divided by 10 values for the compounds below.
Please state the value as a number alone, without comment.

// solved cases for % Incidence of Ulcer Divided by 10 follow
C#CCOC(=O)C(C)c1ccc(CC(C)C)cc1 (stereo not shown)	3.33
Cc1ccc(-n2cc(COC(=O)C(C)c3ccc(CC(C)C)cc3)nn2)cc1 (stereo not shown)	0
CC(C)Cc1ccc(C(C)C(=O)OCc2cn(-c3ccc(Cl)cc3)nn2)cc1 (stereo not shown)	0
CC(C)Cc1ccc(C(C)C(=O)OCc2cn(-c3ccccc3Cl)nn2)cc1 (stereo not shown)	0
CC(C)Cc1ccc(C(C)C(=O)O)cc1 (stereo not shown) [Ibu, Ibuprofen, reference compound]	3.33

% Incidence of Ulcer Divided by 10 value, target or system gastric mucosa, for COc1ccccc1-n1cc(COC(=O)C(C)c2ccc(CC(C)C)cc2)nn1 (stereo not shown) : 0

% Incidence of Ulcer Divided by 10 value, target or system gastric mucosa, for COc1ccc2c(c1)c(CC(=O)O)c(C)n2C(=O)c1ccc(Cl)cc1 [Indo, Indomethacin, reference compound] : 10
